# Tested on: CAKI-1 renal
# measurementDescription: NCI tumour cell line growth inhibition, 48 h
Provide the recorded TGI for the entries that follow.

Task: Return reported TGI; argument: COc1ccccc1CNCCCN1C(=O)c2ccc3c4c(ccc(c24)C1=O)C(=O)N(CCCNCCCCN)C3=O
Result: > 42.4 µM

Task: Entry CN(Cc1cnc2nc(N)nc(N)c2n1)c1c(Cl)cc(C(=O)NC(CCC(=O)O)C(=O)O)cc1Br (stereo not given) : reported TGI = ?
Result: 0.0671 µM

Task: Could you share which TGI value was measured for O=C(O)C1C2OC(C(Br)C2Br)C1C(=O)O (stereo not given) ?
Result: > 100 µM

Task: Tell me the measured TGI of CCCCCCCC(=O)OC[n+]1cccc(-c2c(COC(=O)NC(C)C)c(COC(=O)NC(C)C)c3n2CCC3)c1 , please.
Result: > 87.5 µM

Task: Would you kindly share the measured TGI for FC(F)(Sc1ncccn1)c1nc2ccccc2o1 ?
Result: > 100 µM

Task: Item CCOC(=O)NCC(=O)NCC(=O)NCC(N)=O has what recorded TGI?
Result: > 100 µM

Task: Entry Cc1c(-c2ccccc2)oc(=O)c2ccccc12 : reported TGI = ?
Result: 53.9 µM

Task: // TGI lookup, key: O=C(CN1CCCC1)Nc1ccc2c(c1)C1Oc3ccccc3CC1CO2 (stereo not given)
Result: > 100 µM

Task: // query TGI value for entry O=C(NCCNC1=CC(=O)c2nc3ccccc3c3ccnc1c23)c1cnccn1
Result: 50.9 µM

Task: What does the record list as TGI for CC(C)C(Nc1c2ccccc2[n+](C)c2ccccc12)C(=O)O (stereo not given) ?
Result: > 100 µM

----------
Kindly supply the reported TGI values for the records listed here.
# System: 786-0 renal
# measurementDescription: NCI tumour cell line growth inhibition, 48 h

Task: Sample FC(F)(Sc1ncccn1)c1nc2ccccc2o1 — what was its TGI?
Result: > 100 µM

Task: Which TGI reading was recorded for the molecule Nc1ccc2c3c1cccc3c(=O)n1c3ccc(Cc4ccc5c(c4)nc4c6ccc(N)c7cccc(c(=O)n54)c76)cc3nc21 ?
Result: > 100 µM

Task: # query: TGI of entry Clc1ccc(/C=C/c2csnn2)cc1
Result: > 100 µM

Task: Entry CCCC/C=C1/CCC(CN(C)C)C1=O (stereo not given) : reported TGI = ?
Result: 2.9 µM

Task: Which TGI is reported for this molecule? CN=C1C=C(/N=C2/C=C(N/C(=C\C#N)C(C)(C)O)OC2(C)C)OC1(C)C
Result: > 100 µM

Task: Can you look up the measured TGI of O=C(CC/C(CC(=O)c1ccc(Cl)cc1)=N\O)Nc1cccc(Cl)c1 for me?
Result: > 100 µM

Task: Requested field: TGI. Item: CC1=NN(C(=O)CC(=O)Nc2cccc(C)c2)C(=O)C1N=Nc1ccc(C(=O)O)cc1 (stereo not given)
Result: > 100 µM

Task: Which value of TGI has been reported for Fc1cccc(C2ON=C(c3ccccc3)N2C23CC4CC(CC(C4)C2)C3)c1 (stereo not given) in the records?
Result: > 10 µM

Task: Any idea what its TGI is? The molecule is CCOC(=O)CCC(C(=O)OCC)n1nnc2cc(Nc3c(C)[n+]([O-])c4cc(Cl)ccc4[n+]3[O-])ccc21 (stereo not given)
Result: > 100 µM

Task: Sample CCCCCCC1CCCCN1C(c1ccccc1)C(O)c1ccccc1 (stereo not given) — what was its TGI?
Result: 13.6 µM

----------
# System: HL-60(TB) leukemia
# measurementDescription: NCI tumour cell line growth inhibition, 48 h
For each of the molecules below, state its TGI.
Entry rule: numbers only, all in µM.

Task: Record CCN(CCCl)c1cc(CN(C)C)cc(NC(=O)c2ccc(C(=O)Nc3cccc(N(CCCl)NN)c3)cc2)c1 : what is its TGI with HL-60(TB) leukemia?
Result: 13.1

Task: Lab note: need TGI for N=C(N)c1ccc(N=Nc2c(O)c(C(=O)Nc3ccccc3)cc3ccccc23)cc1 on HL-60(TB) leukemia, anyone have it?
Result: 55.1

Task: I'm curious: which TGI was measured for O=c1c2ccccc2n2nnc3ccc(NCCNCCO)c1c32 tested on HL-60(TB) leukemia?
Result: 5.24

Task: Provide the documented TGI with HL-60(TB) leukemia as the system for COc1cc(C(=O)Nc2ccc(-c3nc4ccccc4[nH]3)cc2)cc(OC)c1OC
Result: 56.4

Task: // map COc1cc2c(c(OC)c1OC)-c1ccc(SC)c(=O)cc1C(CC(=O)Oc1ccccc1F)C2 (stereo not given) to recorded TGI (system: HL-60(TB) leukemia)
Result: 1.37

Task: Identify the measured TGI of O=C(N[C@H]1CC2(C=C(I)C(=O)C(I)=C2)OC1=O)OCc1ccccc1 for HL-60(TB) leukemia.
Result: 21.4

Task: Give recorded TGI with HL-60(TB) leukemia for the following molecule: CC1CC[C@@]2(OC1)OC1C[C@H]3[C@@H]4CC=C5C[C@@H](OC6OC(CO)C(OC7OC(CO)C(O)C(O)C7O)C(O)C6OC6OC(C)C(O)C(O)C6O)CC[C@]5(C)[C@H]4CC[C@]3(C)C1[C@@H]2C (stereo not given in full)
Result: 1.97

Task: Param readout= TGI; system= HL-60(TB) leukemia; entry= NC(=O)N1N=C2c3ccccc3OC[C@H]2[C@@H]1c1ccccc1 ; returns value.
Result: 61.7

----------
# Test system: SF-539 CNS
# measurementDescription: NCI tumour cell line growth inhibition, 48 h
readoutLabel: GI50

Task: If you can, please state the reported GI50 value of CC(C)(C)OC(=O)CC(S(=O)(=O)c1ccccc1)S(=O)(=O)c1ccccc1 .
Result: 17.4 µM

Task: What value of GI50 has been reported for the following molecule? Oc1ccccc1/C=N/c1nc(-c2ccccc2)cs1
Result: 27.5 µM

Task: Which value of GI50 has been reported for O=C([CH-]C(=O)c1ccccc1)c1ccccc1.[CH2-]C.[CH2-]C.[Tl+3] in the records?
Result: 23.2 µM

Task: Consider the molecule CC(=O)CCN1CC2CN=NC2(C#N)C1 (centres undefined) and give its measured GI50.
Result: > 100 µM

Task: # input molecule: CNc1ccc(CSc2ccc(C)cc2)cc1 ; wanted: its GI50
Result: 3.69 µM

Task: Look up GI50: COc1ccc(C2CC(c3cccc(Nc4ccncc4)c3)=NN2c2ccccc2)cc1 (centres undefined)
Result: 1.61 µM

Task: GET /values?readout=GI50&item= COc1cc(C(=O)Nc2ccc(-c3nc4ccccc4[nH]3)cc2)cc(OC)c1OC
Result: 11.6 µM

Task: For O=C(NCCNC1=CC(=O)c2nc3ccccc3c3ccnc1c23)c1cnccn1 , what is its reported GI50?
Result: 51.5 µM

Task: Fill in the blank: the reported GI50 of COc1ccc2cc1Oc1ccc(cc1)CC1c3c(cc(OC)c4c3Oc3cc5c(cc3O4)CCNC5C2)CCN1C (centres undefined) is ____.
Result: 1.9 µM

----------
What TGI was measured for each of the following?
# System: OVCAR-5 ovarian
# measurementDescription: NCI tumour cell line growth inhibition, 48 h
Where a SMILES comes first, the peptide text is derived from it. The star is where a group is joined. Fmoc = O=C(OCC1c2ccccc2-c2ccccc21)*; OBn = c1ccc(CO*)cc1; tBu = CC(C)(C)*

Task: Please give the measured TGI for this molecule: COc1ccc(-c2nc3sccn3c2/C=C/C(=O)c2cc(OC)c(OC)c(OC)c2)cc1
Result: > 23.9 µM

Task: I'd like to know its TGI. The molecule in question is Cc1ccccc1NC(=O)C(=O)CC(=O)c1sc(-n2nc(-c3ccccc3)cc2-c2ccccc2)nc1C
Result: > 100 µM

Task: Could you share which TGI value was measured for CCOC(=O)CCC(C(=O)OCC)n1nnc2cc(Nc3c(C)[n+]([O-])c4cc(Cl)ccc4[n+]3[O-])ccc21 (stereo not drawn) ?
Result: > 100 µM

Task: # query: TGI of entry COc1cc2c(cc1OC)C(C1CC1)ON(C)CC2 (stereo not drawn)
Result: > 100 µM

Task: Which value of TGI has been reported for CC(C)C(Nc1c2ccccc2[n+](C)c2ccccc12)C(=O)O (stereo not drawn) in the records?
Result: > 100 µM

Task: Sample Nc1nc2c([nH]1)c1[nH]c3ccccc3c1c1[nH]c3ccccc3c21 — what was its TGI?
Result: 30 µM

Task: # TGI lookup, item CCCC/C=C1/CCC(CN(C)C)C1=O (stereo not drawn)
Result: 12.3 µM

Task: Any idea what TGI was measured for FC(F)(Sc1ncccn1)c1nc2ccccc2o1 ?
Result: > 100 µM

Task: Quick check: TGI of CNC(=O)N(CCCCC(NC(C)=O)C(=O)NCc1ccccc1)Cc1ccccc1 (stereo not drawn) ?
Result: > 100 µM

Task: Could you share which TGI value was measured for Cc1nc(Nc2ccc(Cl)c(Cl)c2)sc1C(/C=C/c1ccc2c(c1)OCO2)=N/Nc1ccc([N+](=O)[O-])cc1[N+](=O)[O-] ?
Result: > 100 µM

Task: If you can, please state the reported TGI value of COc1cc(COC(=O)N(C)[C@@H](Cc2ccccc2)C(=O)O)c([N+](=O)[O-])cc1OC .
Result: > 100 µM

Task: What value of measured TGI is listed for CCCCCCC1CCCCN1C(c1ccccc1)C(O)c1ccccc1 (stereo not drawn) ?
Result: 22 µM

Task: What does the data say about its TGI? Entry: CCOc1ccccc1NC(=O)C1=C(C)NC(C)=C(C(=O)Nc2ccccc2OCC)C1c1ccc2c(c1)OCO2
Result: > 100 µM

Task: So what does the record say about TGI for COc1cc(C(=O)/C=C/c2c(C)n([O-])c3ccc(Cl)cc3[n+]2=O)cc(OC)c1OC ?
Result: > 100 µM

Task: Entry under review: COc1ccc(-c2nn(-c3cccc(Cl)c3)cc2-c2c(C#N)c(=O)n3[nH]c(-c4ccc(C)o4)nc3c2C#N)cc1 . Reported TGI?
Result: > 50 µM

Task: Would you mind telling me what TGI value was observed for CC(C)(C)c1cc(C(C)(C)C)c2sc(=O)oc2c1O ?
Result: 33.4 µM

Task: Find the recorded TGI belonging to CC(C)(C)C(=O)C(N)C(=O)C(C)(C)C and report it.
Result: > 100 µM

Task: I am curious: what TGI value has been reported for CC(OC(C)(C)C)C(NC(=O)OCC1c2ccccc2-c2ccccc21)C(=O)NC(Cc1ccccc1)C(=O)OCc1ccccc1 (stereo not drawn) (Fmoc-Thr(tBu)-Phe-OBn; configuration not given here) ?
Result: > 100 µM

Task: Dear colleague, I am looking for the recorded TGI of the following molecule: COC(=O)c1c2c(cc3c1CC1(Cc4cc5c(cc4C1)CCCC5)C3)CCCC2
Result: > 100 µM

Task: Given C=C(/C=C/C=C(\CO)CCC=C(C)C)[C@H]1CCC2([C@H](CCCO)/C(=C(/C)C=O)CC[C@]2(C)O)[C@H]1O (stereo partly drawn) , state its recorded TGI.
Result: > 100 µM

Task: Which TGI is listed for Cn1cc(C2=C(c3cccc([N+](=O)[O-])c3)C(=O)NC2=O)c2ccccc21 ?
Result: > 25 µM

Task: # lookup: TGI of c1ccc(CN2CCC(CNc3ncnc4ccccc34)C2)cc1 (stereo not drawn)
Result: > 100 µM

Task: Please give the measured TGI for this molecule: COc1ccc(C2CC(c3cccc(Nc4ccncc4)c3)=NN2c2ccccc2)cc1 (stereo not drawn)
Result: 12.1 µM

Task: # TGI lookup, item COc1ccc(/C=C2\N=C3N(Cc4ccccc4)C=C(N)N3C2=O)cc1
Result: > 100 µM

Task: So what does the record say about TGI for O=C(NCCOC(=O)CCCCCCCCC(=O)OCCNC(=O)NC(=O)c1cn(Cc2ccccc2)c(=O)[nH]c1=O)NC(=O)c1cn(Cc2ccccc2)c(=O)[nH]c1=O ?
Result: > 100 µM

Task: Dear colleague, I am looking for the recorded TGI of the following molecule: COC(=O)c1sc(=S)c2sc(C(=O)OC)c(C(=O)OC)c2c1C(=O)OC
Result: > 100 µM

Task: Look up TGI for this molecule: C[N+](C)([O-])C12CC3CC(CC(C3)C1)C2
Result: > 100 µM

Task: Which TGI value is on record for COc1ccc(N=C2C(=O)Nc3ccc(Br)cc32)cc1 ?
Result: 58 µM

Task: Looking for the measured TGI of CC(CSc1nc2c(c(=N)n1-c1ccccc1)c(=S)n(-c1ccccc1)c(=S)n2-c1ccccc1)CN(C)C (stereo not drawn) , can you help?
Result: 26.8 µM

Task: Fill blank: measured TGI of the molecule CC1=NN(C(=O)CC(=O)Nc2cccc(C)c2)C(=O)C1N=Nc1ccc(C(=O)O)cc1 (stereo not drawn) is ____.
Result: > 100 µM

Task: Which TGI reading was recorded for the molecule COc1cc(-c2ccc[nH]2)[nH]c1/C=C1\N=C(C)C(C(=O)NC(C)C)=C1C ?
Result: 17.3 µM

Task: What TGI value was documented for this molecule, Cc1ncc([N+](=O)[O-])n1CCOc1ccc(C(=O)/C=C/c2ccc(C(F)(F)F)cc2)cc1 ?
Result: 14.4 µM

Task: Request the reported TGI associated with Cc1cn([C@H]2CN(O)C[C@@H](CO)O2)c(=O)[nH]c1=O
Result: > 100 µM

Task: Item under review: Nc1ncnc2c1ncn2CCCNO . Reported TGI?
Result: > 100 µM

Task: Given the molecule O=C(O)c1cc2ccc(Cl)cc2c(O)c1C1=CCCCC1 , what is its reported TGI?
Result: > 100 µM

Task: State the recorded TGI for this entry: O=C([CH-]C(=O)c1ccccc1)c1ccccc1.[CH2-]C.[CH2-]C.[Tl+3]
Result: > 100 µM

Task: Could you tell me which TGI is on file for COc1cc([C@H]2c3cc4c(cc3[C@H](NCc3ccc(F)cc3)C3COC(=O)[C@H]32)OCO4)cc(OC)c1O (stereo partly drawn) ?
Result: 30.9 µM

Task: Can you look up the measured TGI of O=[N+]([O-])/C=C/c1cn(CCCCCCCCn2cc(/C=C/[N+](=O)[O-])c3ccccc32)c2ccccc12 for me?
Result: > 10 µM
